Provide the recorded Ki for the entries that follow.
Target: Cannabinoid receptor 2 (Homo sapiens)
Sequence (P34972 whole entry): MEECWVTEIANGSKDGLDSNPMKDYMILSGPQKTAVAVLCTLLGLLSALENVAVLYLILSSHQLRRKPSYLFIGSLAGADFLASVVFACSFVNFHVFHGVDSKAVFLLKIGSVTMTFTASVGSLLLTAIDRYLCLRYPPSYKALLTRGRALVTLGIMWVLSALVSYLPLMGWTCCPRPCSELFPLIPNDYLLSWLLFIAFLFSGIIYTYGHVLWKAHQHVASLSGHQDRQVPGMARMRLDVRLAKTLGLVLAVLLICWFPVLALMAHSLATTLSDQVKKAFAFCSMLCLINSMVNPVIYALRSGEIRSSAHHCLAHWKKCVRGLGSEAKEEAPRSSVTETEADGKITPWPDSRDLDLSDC
Assay: Displacement of [3H]CP-55940 from human recombinant CB2 receptor expressed in CHO cell membranes incubated for 60 mins by scintillation counting
One number for each entry, in nM.

CCC1COc2cccc3c(=O)c(C(=O)NC4CCCCCC4)cn1c23 (racemic)    9.24

Quick batch: Ki for everything below.
1. Cc1ccc(C2COc3cccc4c(=O)c(C(=O)NC5CCCCC5)cn2c34)cc1 (racemic)
2. O=C(NC1CCCCCC1)c1cn2c3c(cccc3c1=O)OCC2C1CC1 (racemic)
3. CCCC1COc2ccc(C)c3c(=O)c(C(=O)NC4CCCCC4)cn1c23 (racemic)

**A:**
1: 468; 2: 3.12; 3: 38
